These data points were gathered from the supplement of paper PMC10338343.

- Tested on: MILI (PIWIL2) piRISC loaded with L1MC piRNA (26 nt);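 note: 1 nM active piRISC with 0.1 nM target library at 33 °C single turnover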
- Assay info: pre-steady-state target cleavage rate (min^-1); guide: L1MC piRNA 5'p-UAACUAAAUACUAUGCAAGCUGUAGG; MIWI and MILI are mouse PIWI proteins and EfPiwi is from a freshwater sponge; tags in brackets are library labels; higher = faster piRNA-guided slicing of the target
- Condition description: auxiliary factor: 500 nM mouse GTSF1
Kindly state pre-steady-state target cleavage rate for each of the entries shown.
Numbers only.

UCCUGGAUGUCGAUGCAUAGUAUUUCGUUA = 0.0116
UCCUGGAUGAGCAUGCUUAGUAUUUAGUUA = 0.115
UCCUGGUACAGCUUGCAAAGUAUUUACUUA = 0.0515
UCCUGCUACAGCUUCGUUAGUAUUUAGUAA = 0.154
UCCUGGUCAGCUUGCAUAGUAUUUAGUUA = 0.269
UCCUCCUUGAGCUUGCAUAGUAUUUAGUAA = 0.217
UCCUGCUACAGCUUGCAUAGUUAUUUCAAA = 0.0109
UCCUGGAUGUCGAUGCAUAGUAAUAAGUUA = 0.00446
UCCUGGAACAGCUUGCAUUGUAUUUACUUA = 0.163
UCCUGGAUGUCCUUGCAAAGUAUUUAGUUA = 0.0392

Fill in pre-steady-state target cleavage rate for each of the 3 sequences listed.
1. UCCUGGAUGUGCUUGCAUUGUUUUUAGUUA
2. UCCUGGAACAGGUAGCAUAGUAUUUAGUUA
3. UCCUGCUACAGACUUGCAUAGUAUUUAGUUA

0.00733
0.209
0.169
